assayed.system: human recombinant p38α protein kinase (Homo sapiens)
Sequence (Q16539 whole entry): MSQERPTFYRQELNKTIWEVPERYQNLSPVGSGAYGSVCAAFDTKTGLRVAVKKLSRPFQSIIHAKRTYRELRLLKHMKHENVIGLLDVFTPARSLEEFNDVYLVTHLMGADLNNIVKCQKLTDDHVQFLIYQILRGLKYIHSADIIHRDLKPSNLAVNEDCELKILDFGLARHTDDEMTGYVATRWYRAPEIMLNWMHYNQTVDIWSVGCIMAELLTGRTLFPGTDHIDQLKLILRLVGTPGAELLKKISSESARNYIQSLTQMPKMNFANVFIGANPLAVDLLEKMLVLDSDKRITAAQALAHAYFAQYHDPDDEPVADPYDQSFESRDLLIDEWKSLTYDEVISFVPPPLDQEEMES
protocol.summary: Human p38α MAP kinase inhibition assay (cell-free)
condition.details: inhibition of phosphorylation of myelin basic protein by recombinant human p38α MAP kinase by 50%; Table III; read-out: IC50 p38α MAPK
Counter-ions that a name gives are not always drawn.
measurement.kind: IC50

Tell me IC50 of CCC(C)c1nn(-c2ccnc(Nc3ccccc3)c2)c(-c2ccc(F)cc2)c1/C=C/[C@@H](O)C[C@@H](O)CC(=O)O (stereo partly shown) [Example 10a, calcium salt] when tested on human recombinant p38α protein kinase (Homo sapiens).
11 µM

Numbers sourced from patent US20070015779A1.
